Just for reference, paper PMC10397247 is where these values come from.

- measured.target: T1, 4H2585-bH
- T1 chain: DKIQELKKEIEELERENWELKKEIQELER
- protocol: two-hybrid library CCNG1;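 also: natural log of median RNA to DNA barcode read ratio; higher means stronger binding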
readout.type: interaction score

Past entries and their recorded results:
>>> endpoint_value("DKIQELEKEIEELKRKNWELEKEIQELKR [4H2162-bH]")
0.942
>>> endpoint_value("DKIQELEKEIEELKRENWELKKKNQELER [4H2143-bH]")
-1.12
>>> endpoint_value("DKIQELKKEIEELERENWELKKEIQELER [4H2585-bH]")
-0.17

[1] DKIQELEKENEELKREIWELKKKIQELER [4H2253-bH]
[2] DEIQELEKENEELERKIWELEKKIQELKR [4H166-bH]
[3] DKIQELEKENEELERKNWELKKEIQELER [4H2233-bH]
Task field, ranking: reported interaction score, descending order. Kindly provide the labels arranged according to the requested ordering.
2, 3, 1
(2: 0.621, 3: -0.529, 1: -1.52)
